Overview of reported growth across a group of compounds:
System: HCT-116 colon
experiment: NCI-60 one-dose screen, 48 h (100 = growth as untreated, 0 = no growth, -100 = all killed)
conditionSummary: 10 µM unless noted
Compounds without any hit were thinned out: in the full panel of roughly 83,000, 20% have a hit.
testReadout: growth (%)

- COc1ccc(C/C(C)=C(\c2ccc(Cl)cc2)c2ccc(OCCCN(C)C)cc2)cc1: 60.3
- O=C(Nc1ccccc1O)c1ccc(CNc2ccnc(C(F)(F)F)c2)cc1: 42.2
- CN(C)c1ccc(/C=N\NC(=O)c2ccc3nc(-c4ccc(Cl)cc4)[nH]c3c2)cc1: 48.6
- C[C@H](c1nc2ccc(C#N)cc2[nH]1)[C@H]1CC[C@H]2[C@@H]3CCC4=CC(=O)CC[C@]4(C)[C@H]3CC[C@]12C: 49.7
- COc1cc(O)c2c(=O)c3c(CC=C(C)C)cc(OC)c(O)c3oc2c1: 11.8
- COc1cc2ncnc(Nc3ccc(F)c(Cl)c3)c2cc1OCC(=O)N1CCOCC1: 84
- O=C(Oc1ccc2c(c1)sc1nc(-c3ccccc3)[nH]c(=O)c12)C(F)(F)F: 19.8
- C=C1C(=O)O[C@H]2[C@H]1CC/C(CNC(=O)Cc1c[nH]c3ccccc13)=C\CC[C@@]1(C)O[C@@H]21: -11.9
- O=C(O)CCCCCCCCCCN1C(=O)/C(=C2/C(=O)N(CC(=O)O)c3ccc(Br)cc32)SC1=S: 87.2

* * *

Tested on: MCF7 breast
experiment: NCI-60 one-dose screen, 48 h
conditionSummary: 10 µM unless noted
Procedure: Growth inhibition of the MCF7 human tumor cell line is measured as a screen for anti-cancer activity. Cells are grown in 96 well plates and exposed to the test compound for 48 hours. Compounds are tested at a single concentration, which is 10^-5 M for most compounds. The reported endpoint is percent growth (GI% or GIPRCNT), where numbers from 0 - 100% represent growth inhibition, and numbers from -100% - 0 represent cell death. For example, a value of 40 represents 60% growth inhibition. […]
About 83,000 compounds went through this panel and 20% of them were active in at least one assay; those are over-represented in the sample as a whole. Active and inactive are the calls of the source. The calls were made as follows: active = growth percent below 10; inactive = the rest.
Classes used: active, inactive

- COCCOC(C)C(/C=N/NC(N)=S)=N/NC(N)=S (stereo unspecified): inactive
- NS(=O)(=O)c1ccc(C(=O)N=Nc2c(O)[nH]c3ccc(Cl)cc23)cc1: inactive
- CC(=O)c1c(Nc2cccc(F)c2)[nH]c2c(Cl)cc(Cl)c(Cl)c2c1=O: active
- Clc1ccc(-c2nc(C(Cl)Cl)nc3cc(-c4ccccc4)nn23)cc1: inactive
- O=S(Nc1ccccc1)c1ccc(Cl)cc1 (stereo unspecified): inactive
- CC(=O)c1sc(-c2ccc(F)cc2)cc1O: inactive

* * *

System: HT29 colon
experiment: NCI-60 one-dose screen, 48 h (100 = growth as untreated, 0 = no growth, -100 = all killed)
conditionSummary: 10 µM unless noted
The panel holds about 83,000 compounds, 20% with a hit somewhere; the sample as a whole holds those more often.
Listed here: items and their measured growth.
testReadout: growth (%)

- Cc1ccc(NC(=O)c2sc3nc(C)c(C(O)c4ccccc4)cc3c2N)cc1 (stereo unspecified): 9.15
- CN(C)C1CN(C(=O)c2cc(-c3ccc4ncnc(N5CCc6cc(F)c(Cl)cc65)c4c3)cnc2N)C1: 14.8
- Cc1ccc(Cc2cnc(NC(=O)/C=C/c3ccc(C)o3)s2)cc1: 11.4
- O=c1ccc2ccc(OCCN3CCCCC3)cc2o1: 98.9
- Oc1ccc(-c2nc3ccc4[nH]ncc4c3c3c2CCCC3)c(F)c1: 42.5
- CN1CCN(c2ccc(NC3=CC(=O)c4ncncc4C3=O)cc2)CC1: -29
- COc1ccc(/C=C(/C(=O)N2CCNCC2)c2cc(OC)c(OC)c(OC)c2)cc1O: 88.1
- CN(C)c1ccc(CNCCO)cc1: 69.1
- O=C1Nc2ccc(Cl)cc2/C1=C/c1ccc[nH]1: 107
- O=S(O)c1cc(Cl)cc(Cl)c1OCc1ccccc1: 104
- Cc1ccc(C(=O)c2ccc(CC(=O)N/N=C/c3cccc(O)c3O)n2C)cc1: 86.7
- C=C1CC[C@@H]2C(C)(C)[C@H](O)CC[C@@]2(C)[C@@H]1COc1ccc2ccc(=O)oc2c1: 84.1
- Cc1nc2sc(C(=O)Nc3cccc4ccccc34)c(N)c2cc1C(=O)c1ccccc1: 14.7
- Cc1nc2ccccc2c(/C=C/c2ccc(F)cc2)c1C(=O)/C=C/c1ccccc1: 3.31
- c1ccc(Nc2nc3c(s2)CCc2c[nH]cc2-3)nc1: 100
- Cc1ccc(S(=O)(=O)N2CCCN(c3nc(-c4ccccc4)nc4nc(-c5ccccc5)oc34)CC2)cc1: 120
- CC(C)=CC(=O)N[C@H]1CC[C@]2(C)C3CC[C@]4(C)C(C(C)N(C)C)=CCC4C3CCC2[C@H]1O (stereo partly specified): 2.01
- CSc1ccc(N2C(=N)C(=S)N(c3ccc(C)cc3)C2=O)cc1: 107
- NC(=O)c1ccccc1OCC(=O)Nc1ccc(Cl)c(Cl)c1: 113
- O=C(Nc1ccc(Oc2cccc(Cl)c2)c(Cl)c1)c1cccnn1: 89.9
- CCOc1ccc(/C=C/C(=O)c2cccc(OCCCOc3cccc(C(=O)/C=C/c4ccc(OCC)cc4)c3)c2)cc1: 94.2

Values from PubChem BioAssay (NCI)
